Molecular target: GST-tagged truncated LRRK2 containing residues 970 to 2527 (Homo sapiens)
Construct: GST-tagged truncated LRRK2 containing residues 970 to 2527 (Life Technologies); purchased Life Technologies
Sequence (Q5S007 970-2527): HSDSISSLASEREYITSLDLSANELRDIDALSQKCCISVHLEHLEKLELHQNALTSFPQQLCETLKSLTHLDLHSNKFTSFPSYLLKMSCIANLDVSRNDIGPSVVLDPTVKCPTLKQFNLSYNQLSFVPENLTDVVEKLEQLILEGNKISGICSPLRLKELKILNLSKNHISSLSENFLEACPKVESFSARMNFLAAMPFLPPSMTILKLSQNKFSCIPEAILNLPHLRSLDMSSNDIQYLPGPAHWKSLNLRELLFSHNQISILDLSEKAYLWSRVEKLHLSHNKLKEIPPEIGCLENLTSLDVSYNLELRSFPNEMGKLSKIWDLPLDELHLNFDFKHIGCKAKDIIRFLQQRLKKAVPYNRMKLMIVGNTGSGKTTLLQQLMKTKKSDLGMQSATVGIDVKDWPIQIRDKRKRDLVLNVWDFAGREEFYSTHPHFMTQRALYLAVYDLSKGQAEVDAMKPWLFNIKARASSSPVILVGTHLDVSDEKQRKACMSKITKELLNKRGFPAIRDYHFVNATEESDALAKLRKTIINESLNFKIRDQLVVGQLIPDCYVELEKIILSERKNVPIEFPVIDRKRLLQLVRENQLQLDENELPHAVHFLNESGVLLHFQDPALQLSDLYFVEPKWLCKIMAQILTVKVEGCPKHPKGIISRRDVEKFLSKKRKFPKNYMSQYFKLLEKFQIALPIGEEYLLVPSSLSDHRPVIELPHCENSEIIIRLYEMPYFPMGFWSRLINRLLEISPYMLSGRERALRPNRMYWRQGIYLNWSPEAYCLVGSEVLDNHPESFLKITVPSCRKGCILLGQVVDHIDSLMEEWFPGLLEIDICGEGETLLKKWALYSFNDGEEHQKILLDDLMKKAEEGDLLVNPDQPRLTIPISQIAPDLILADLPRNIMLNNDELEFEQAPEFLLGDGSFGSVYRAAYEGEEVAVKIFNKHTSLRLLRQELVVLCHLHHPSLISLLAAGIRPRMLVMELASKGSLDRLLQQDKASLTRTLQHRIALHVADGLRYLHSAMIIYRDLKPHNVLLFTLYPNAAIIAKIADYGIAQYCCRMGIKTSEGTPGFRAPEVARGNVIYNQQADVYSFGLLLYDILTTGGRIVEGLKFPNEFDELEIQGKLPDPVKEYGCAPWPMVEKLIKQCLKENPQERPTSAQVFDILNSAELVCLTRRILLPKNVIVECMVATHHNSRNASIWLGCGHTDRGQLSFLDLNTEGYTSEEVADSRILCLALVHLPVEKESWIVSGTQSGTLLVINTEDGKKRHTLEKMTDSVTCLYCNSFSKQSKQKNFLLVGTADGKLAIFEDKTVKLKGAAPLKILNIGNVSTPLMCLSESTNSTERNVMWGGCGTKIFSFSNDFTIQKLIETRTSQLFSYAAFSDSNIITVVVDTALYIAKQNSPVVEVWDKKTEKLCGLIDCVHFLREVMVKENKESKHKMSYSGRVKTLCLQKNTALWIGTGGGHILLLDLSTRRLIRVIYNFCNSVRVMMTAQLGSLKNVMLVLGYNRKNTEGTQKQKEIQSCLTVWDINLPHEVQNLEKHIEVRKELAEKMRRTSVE
Test: In vitro LRRKtide peptide-substrate kinase assay, single dose testing (10 μM)
Assay type: biochemical
Conditions: LRRKtide assay @ 10 μM inhibitor; GST-LRRK2 970-2527; 10 μM ATP; mean, N = 3; solvent control = 100%
readout kind: % LRRKtide phosphorylation relative to solvent (%)
# output: bare number, implied unit %

compound	measured
Cn1nc2c3c(cccc31)C(=O)c1ccccc1-2 [JNK inhibitor, negative control]	17.88
N/C(=N\[N+](=O)[O-])N/N=C\c1ccc(-c2cccc([N+](=O)[O-])c2)o1	55.32
O=c1c2ccccc2[nH]c(=S)n1CCN1CCC(=C(c2ccc(F)cc2)c2ccc(F)cc2)CC1	119.82
Oc1cccc(-c2nc(N3CCOCC3)c3oc4ncccc4c3n2)c1	88.58
CC(=O)O/N=C1/C(=C2/C(=O)Nc3cc(Br)ccc32)Nc2ccccc21	38.94

May I ask what % LRRKtide phosphorylation relative to solvent has been recorded for O=C1NC(=O)c2c1c1c3ccccc3n3c1c1c2c2ccccc2n1C1CCC3O1 ?
1.94

Record: CN(C)S(=O)(=O)c1ccc2c(c1)/C(=C/c1cc3c([nH]1)CCCC3)C(=O)N2
4.57

Record: O=C1c2ccccc2-[n+]2ccc3c([nH]c4ccccc43)c21 [Fascaplysin, synthetic, Fascaplysin]
17.51
